The origin of these recorded values is PubChem BioAssay AID1419.

# IC50 annotations
- Assay procedure: blockers of an Epstein-Barr virus protein-peptide interaction – biochemical, fluorescence polarization, dose response (AID 1419)
- Measurement context: cell-free protein-peptide binding, 2 h
Calls of active or inactive are those of the source. How the calls were made is not given here.

O=C(CSc1nc2ncccc2[nH]1)Nc1ccc2c(c1)OCO2; > 54 µM (inactive)
CN1CC=C2C(C#N)=C(N)C(C#N)(C#N)[C@H](c3cccc(Cl)c3)C2C1 (stereo partly drawn); 3.17 µM
O=c1[nH]c(S)c(/C=C2\C=Nc3ccccc32)s1; 2 µM
CC(C)(O)[C@H]1O[C@H]2CC[C@@]3(C)[C@@](O)(CC[C@H]4Cc5c([nH]c6ccccc56)[C@@]43C)C2=CC1=O; 2.03 µM
CSC1=NSC2=NC(=O)/C(=C\c3coc4ccccc4c3=O)C(=N)N12; 2.74 µM
COc1ccc(/C(O)=C/c2nc3ccccc3n(-c3ccccc3)c2=O)cc1; > 54 µM (inactive)

Asked: Please report the recorded IC50 for `O=c1c(/C=N/Nc2ccccc2)c(Sc2nnnn2-c2ccccc2)nc2ccccn12` .
Given back: 4.73 µM

Asked: Please report the recorded IC50 for `CCN(CC)c1ccc2cc(C(=O)NNC(=O)c3ccc(S(=O)(=O)N4CCCCC4)cc3)c(=O)oc2c1` .
Given back: 3.01 µM

###

- Assay procedure: blockers of an Epstein-Barr virus protein-peptide interaction – biochemical, fluorescence polarization, dose response (AID 1419)
- Measurement context: cell-free protein-peptide binding, 2 h
Calls of active or inactive are those of the source. The rule behind the calls is not given here.
Please state which outcome applies, choosing from active, inactive

Answered examples (8):
Cc1ccc(C)c(-n2c3nc(=O)[nH]c(=O)c-3cc3cc([N+](=O)[O-])ccc32)c1; active
COc1ccc(C2CC(c3ccccc3)n3nc(NC(=O)c4cccs4)nc3N2)cc1 (centres undefined); inactive
O=C(N/N=C/c1ccccc1Cl)c1nc2ccc([N+](=O)[O-])cc2c(=O)[nH]1; inactive
CC(C)CSC1=NSC2=NC(=O)/C(=C\c3coc4ccccc4c3=O)C(=N)N12; inactive
COc1ccc(C2=CC(c3ccco3)n3ncnc3N2)cc1 (centres undefined); active
O=c1oc2ccccc2nc1/C=C(\O)c1ccc(Br)cc1; inactive
CCOCCCn1c(=NC(=O)c2cccs2)c(C#N)cc2c(=O)n3cccc(C)c3nc21; active
Cc1cc(C=C2C(=O)NC(=S)NC2=O)c(C)n1-c1ccc2c(c1)OCO2; inactive

Asked: Recorded test call requested for `Nc1cc2c3c(cccc3c1)C(=O)N(CCN1CCCC1)C2=O`
Given back: active

Asked: Recorded test call requested for `CCN(CC)c1ccc(/C=C/C(=O)c2ccc(Br)cc2)cc1`
Given back: active

Asked: Recorded test call requested for Cc1cc2c(cc1C)NC(c1c(C)n(C)n(-c3ccccc3)c1=O)C1=C(CC(C)(C)CC1=O)N2 (centres undefined)
Given back: active

Asked: Recorded test call requested for `COc1ccc(-c2nnc(-c3cc4c(ccc5ccccc54)oc3=O)o2)cc1`
Given back: active

Asked: Recorded test call requested for `COCCOC(=O)c1sc(=S)n(CCOC)c1N`
Given back: active

Asked: Recorded test call requested for CC1CCCN(c2nc3ccccc3nc2C(C#N)S(=O)(=O)c2ccccc2)C1 (centres undefined)
Given back: inactive

Asked: Recorded test call requested for `O=C(COc1ccccc1Cl)c1ccc[nH]1`
Given back: inactive

Asked: Recorded test call requested for `O=C(CCN1CCN(c2ccccc2)CC1)N/N=C/c1ccc(O)c(O)c1O`
Given back: inactive

Asked: Recorded test call requested for `O=C(N=Nc1ccc(NOC(=O)c2ccccc2Br)cc1)c1ccccc1O`
Given back: inactive

Asked: Recorded test call requested for `Cc1cc[n+](-c2[nH]c(=O)sc2/C=N/NC([S-])=Nc2ccccc2)cc1`
Given back: inactive

Asked: Recorded test call requested for `O=C1C2=C(SCCS2)C(=O)N1CCCO`
Given back: active
